- test.description: Lipophilicity, log P of the compound
- measurement.conditions: octanol/water, logP
measurement.label: logP
Give the figure by itself; no unit, no explanation.

| compound | logP |
| --- | --- |
| O=C(NNS(=O)(=O)c1ccccc1)c1ccncc1 | -1.29 |
| CN(C)c1ccc(C(=O)NN)cc1 | -0.65 |
| CCCCN(CCCC)Cc1cccc(/C(C)=N/NC(=O)c2ccncc2)c1O | 4.05 |
| C/C(=N\NC(=O)c1ccncc1)c1cccc(CN2CCNCC2)c1O | 1.05 |
| Cc1cccc(OC/C(N)=N/NC(=O)c2ccncc2)c1 | 1.27 |
| NNC(=O)c1ccnc(Cl)c1 | -1.61 |

### Prompt So what does the record say about logP for CC(C)COc1ccc(/C=N/NC(=O)c2ccncc2)cc1 ?
### Response 2.81

### Prompt NNC(=O)c1ccnc2ccccc12 ?
### Response -1.35
